Every entry's value here was drawn from ChEMBL document CHEMBL1157659.

Would you mind telling me the reported Ratio IC50 of each entry?
Species on record: Homo sapiens
Assay: Selectivity ratio of IC50 for human recombinant PDE11 to IC50 for human platelet PDE5
One number for each entry.

Please supply Ratio IC50 for each of the following items, keeping them in order.
1. CCCOCCn1c(=O)c(N2C[C@H]3C[C@@H]2CN3)nc2cnc(-c3ccc(OC)nc3)cc21
2. CCCOCCn1c(=O)c(N2CCN(CCO)CC2)nc2cnc(-c3ccc(OC)nc3)cc21 [PF-03049423]
3. CCCOCCn1c(=O)c(N2CCN(C[C@@H](C)O)CC2)nc2cnc(-c3ccc(OC)nc3)cc21
4. CCCOCCn1c(=O)c(N2CCN(C[C@H](C)O)CC2)nc2cnc(-c3ccc(OC)nc3)cc21

A.
456
2460
2380
1400

###

Species: Homo sapiens
Assay: Fraction unbound in human plasma
readout kind: fraction unbound
Give bare numbers.

Q. Identify measured fraction unbound associated with CCCOCCn1c(=O)c(NCCNCCO)nc2cnc(-c3ccc(OC)nc3)cc21
A. 0.18

###

Target: UniProt P27815
Sequence (P27815 whole entry): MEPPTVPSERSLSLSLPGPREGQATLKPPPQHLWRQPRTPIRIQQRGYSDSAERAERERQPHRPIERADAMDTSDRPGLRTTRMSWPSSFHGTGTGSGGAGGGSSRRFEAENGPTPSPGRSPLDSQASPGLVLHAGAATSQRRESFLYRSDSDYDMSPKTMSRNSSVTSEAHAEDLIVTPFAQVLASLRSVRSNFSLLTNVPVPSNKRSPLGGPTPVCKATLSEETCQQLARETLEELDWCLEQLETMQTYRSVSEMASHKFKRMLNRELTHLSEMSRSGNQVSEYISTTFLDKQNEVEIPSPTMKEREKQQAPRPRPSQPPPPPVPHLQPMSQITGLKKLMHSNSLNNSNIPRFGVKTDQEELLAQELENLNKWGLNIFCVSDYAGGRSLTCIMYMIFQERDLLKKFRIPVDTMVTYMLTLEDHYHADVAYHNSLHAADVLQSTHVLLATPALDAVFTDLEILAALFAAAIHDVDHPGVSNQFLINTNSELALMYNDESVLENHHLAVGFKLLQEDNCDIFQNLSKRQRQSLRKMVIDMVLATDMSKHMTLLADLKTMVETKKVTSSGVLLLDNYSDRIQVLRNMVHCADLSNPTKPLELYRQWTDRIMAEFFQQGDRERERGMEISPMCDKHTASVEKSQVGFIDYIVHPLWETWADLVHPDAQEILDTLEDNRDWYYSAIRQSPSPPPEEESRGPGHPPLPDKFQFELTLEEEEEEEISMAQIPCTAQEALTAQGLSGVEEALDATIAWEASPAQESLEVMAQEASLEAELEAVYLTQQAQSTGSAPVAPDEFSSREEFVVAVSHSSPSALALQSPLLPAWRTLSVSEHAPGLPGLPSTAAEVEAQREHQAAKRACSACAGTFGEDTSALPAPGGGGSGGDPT
pIC50: −log10 of the molar value.
readout kind: pIC50

Q. Write down measured pIC50 (UniProt P27815) for this compound. CCCOCCn1c(=O)c(N2CCN(CCO)CC2)nc2cnc(-c3ccc(OC)nc3)cc21
A. < 5.70

###

Would you mind telling me the reported IC50 of each entry?
Target: cGMP-specific 3',5'-cyclic phosphodiesterase (Homo sapiens, UniProt O76074)
Numbers only, in pM.

- item smiles: "CCCOCCn1c(=O)c(N2CCN(CC)CC2)nc2cnc(-c3ccc(OC)nc3)cc21"
  IC50 (pM): 220

Now for a further molecule.
Q. Identify measured IC50 associated with CCCOCCn1c(=O)c(N2CCN(C[C@@H](C)O)CC2)nc2cnc(-c3ccc(OC)nc3)cc21
A. 230

###

Experiment: Metabolic stability in rat microsomes assessed as compound remaining after 30 mins
Type: ADME, Microsome
Details: read-out: Stability
Would you mind telling me the reported remaining at 0.5 h of each entry?
Give bare numbers, in %.

Please supply remaining at 0.5 h for each of the following items, keeping them in order.
1. CCCOCCn1c(=O)c(NCCN)nc2cnc(-c3ccc(OC)nc3)cc21
2. CCCOCCn1c(=O)c(N2CCNCC2)nc2cnc(-c3ccc(OC)nc3)cc21
3. CCCOCCn1c(=O)c(N2CCN(CCO)CC2)nc2cnc(-c3ccc(OC)nc3)cc21 [PF-03049423]

A.
1: 98; 2: 86; 3: 89

Q. Identify measured remaining at 0.5 h associated with CCCOCCn1c(=O)c(NCCNCCO)nc2cnc(-c3ccc(OC)nc3)cc21
A. 100

###

Test: Clearance in dog
Assay type: ADME, organism-based, Canis lupus familiaris
Settings: in vivo
readout kind: clearance
Could you kindly put the unit after your number?

Q. Identify measured clearance associated with CCCOCCn1c(=O)c(N2CCN(CCO)CC2)nc2cnc(-c3ccc(OC)nc3)cc21
A. 0.348 L/h/kg

###

Assay: Tmax in healthy human
Type: ADME, organism-based
Settings: in vivo
readout kind: Tmax
Could you kindly put the unit after your number?

Q. Identify measured Tmax associated with CCCOCCn1c(=O)c(N2CCN(CCO)CC2)nc2cnc(-c3ccc(OC)nc3)cc21
A. 1 h

###

Target: High affinity cAMP-specific and IBMX-insensitive 3',5'-cyclic phosphodiesterase 8B (Homo sapiens, UniProt O95263)
Sequence (O95263 whole entry): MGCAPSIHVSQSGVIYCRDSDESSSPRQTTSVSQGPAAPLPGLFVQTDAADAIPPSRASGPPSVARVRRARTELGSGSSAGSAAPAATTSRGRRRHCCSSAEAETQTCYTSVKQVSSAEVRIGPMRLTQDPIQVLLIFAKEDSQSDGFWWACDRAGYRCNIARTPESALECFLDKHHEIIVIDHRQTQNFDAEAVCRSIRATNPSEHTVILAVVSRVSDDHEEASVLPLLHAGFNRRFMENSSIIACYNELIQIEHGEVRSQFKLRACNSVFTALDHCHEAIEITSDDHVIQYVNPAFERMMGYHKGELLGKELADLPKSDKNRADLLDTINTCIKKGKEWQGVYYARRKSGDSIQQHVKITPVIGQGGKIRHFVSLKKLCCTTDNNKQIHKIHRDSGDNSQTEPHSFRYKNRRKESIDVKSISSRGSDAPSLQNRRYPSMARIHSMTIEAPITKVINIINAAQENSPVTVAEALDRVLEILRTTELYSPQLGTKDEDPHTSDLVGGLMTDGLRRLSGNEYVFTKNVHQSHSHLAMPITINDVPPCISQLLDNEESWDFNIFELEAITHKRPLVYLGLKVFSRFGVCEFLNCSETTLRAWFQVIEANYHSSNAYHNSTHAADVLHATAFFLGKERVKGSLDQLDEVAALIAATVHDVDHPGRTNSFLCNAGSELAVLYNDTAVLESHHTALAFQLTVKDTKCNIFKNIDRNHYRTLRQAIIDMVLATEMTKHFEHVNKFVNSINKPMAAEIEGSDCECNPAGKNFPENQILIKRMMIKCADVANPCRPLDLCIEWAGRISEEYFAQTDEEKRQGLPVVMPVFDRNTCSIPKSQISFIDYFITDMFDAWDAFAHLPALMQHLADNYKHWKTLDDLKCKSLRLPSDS
readout kind: IC50

Q. Identify measured IC50 associated with CCCOCCn1c(=O)c(N2CCN(CCO)CC2)nc2cnc(-c3ccc(OC)nc3)cc21 [PF-03049423]
A. > 2000 nM
